# Measured On: mOREG (Mus musculus)
# Sequence (Q920P2 1-313): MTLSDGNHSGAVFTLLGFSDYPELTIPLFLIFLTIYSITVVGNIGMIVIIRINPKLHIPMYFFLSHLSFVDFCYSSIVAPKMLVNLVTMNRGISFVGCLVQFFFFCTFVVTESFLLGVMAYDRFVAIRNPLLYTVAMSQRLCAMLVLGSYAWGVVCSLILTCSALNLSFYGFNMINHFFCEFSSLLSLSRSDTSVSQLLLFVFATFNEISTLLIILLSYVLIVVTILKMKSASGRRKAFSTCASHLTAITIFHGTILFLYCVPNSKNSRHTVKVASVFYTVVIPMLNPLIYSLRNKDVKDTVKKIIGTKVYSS
# Experiment Description: Ca2+-imaging, control receptor mOREG
# Assay type: cell-based
# Stated Conditions: compound applied at 4 μM; read-out: Percent Inhibition mOREG
Measured inhibition at 4 µM values are reported for all entries that follow.

>>> value_reported("COCCCN(Cc1c(-c2ccccc2)noc1N1CCC(C)CC1)C(=O)c1ccccc1F")
"26 to 50%"
>>> value_reported("COCCCN(Cc1c(-c2ccccc2)noc1N1CCCC1)C(=O)c1ccc(F)cc1")
"26 to 50%"
>>> value_reported("COc1ccccc1N1CCN(C(=O)c2cc3n(n2)CCN(Cc2c(F)cccc2Cl)C3=O)CC1")
"51 to 74%"

*Q* What inhibition at 4 µM value was documented for this compound, CCOC(=O)C(c1cccc(OC)c1)C1C=CC(NC(=O)c2cccs2)C1 (stereo not drawn) ?
*A* < 25%

*Q* inhibition at 4 µM lookup needed for COc1ccccc1C(=O)C1CCCN(C(=O)c2cccc(N3CCOCC3)c2)C1 (stereo not drawn) , thanks.
*A* 26 to 50%

*Q* Report inhibition at 4 µM for CCN(CC)c1onc(-c2ccccc2)c1CN(CC1CCCO1)C(=O)c1ccco1 (stereo not drawn) please.
*A* 26 to 50%
